System: MS2 coat protein
Assay: apparent KD of MS2 coat protein; designed switch direction (-1 OFF switch, 1 ON switch): -1; higher = weaker reporter binding
Settings: input ligand: microRNA oligo, concentration not stated
parameter_measured: apparent KD of MS2 coat protein (nM)
Give bare numbers, in nM.

Dear colleague, could you send me apparent KD of MS2 coat protein for each of the items below? Thanks.
1. CUUGUUUAUGUAGGAUAUACAUGAGGAUCACCCAUAGAAGGACAUGAGGAUCACCCAUGUAUUGCGGUCUGCGUUCAGAUCGCA [salish99_ExNG1_r04_101] (Eterna round: R96, puzzle: Exclusion NG 1)
2. UAUAUAUAGUAAGGAUAUGUAUAUACUUUAUAAACAGAAGGUACUGACAUGAGGAUCACCCAUGUUUUAGUGUGGGCAUGUAGA [JMF's solution 57] (Eterna round: R96, puzzle: Exclusion NG 1)
3. AGGGAGUAAGGAUAUCGGAAAGGACACGAAAGUGACAAAGACGAGAAGGUACAUGAGGAUCACCCAUGUAAAAA [milkweed 24] (Eterna round: R96, puzzle: Exclusion 4)
4. GUACUGAGGCUUUGCUUUAGUCGUACAUGAGGAUCACCCAUGUAGGAUAUGGUAGGCUUUGCUUACCAGAAGGACAGAGUGAUC [JL EXNG3 1.22] (Eterna round: R96, puzzle: Exclusion NG 3)
5. CGUGUAGGAGUAGGAUAUGCGUCUAGACUACGAGCAGAAGGACUCCAGGACUUGAGGAUCACCCAAGUGCGUCCCGAGCCGUAG [Mutated MS2 EX1.23] (Eterna round: R96, puzzle: Exclusion NG 1)

1. 298
2. 57.1
3. 18.2
4. 188
5. 11.7

Recorded values, source the supplement of paper PMC9170038.
